target: mouse SMO^WT (Mus musculus, UniProt P56726); construct: expressed in transfected cells; assay: Mouse assay: Gli1 qPCR in MEF cells stably expressing mouse SMO WT; format: cell-based; conditions: mSHh-treated, 24 hours, Gli1 inhibition by qPCR, read-out: Mouse WT pIC50 (converted)
Sequence (P56726 33-793): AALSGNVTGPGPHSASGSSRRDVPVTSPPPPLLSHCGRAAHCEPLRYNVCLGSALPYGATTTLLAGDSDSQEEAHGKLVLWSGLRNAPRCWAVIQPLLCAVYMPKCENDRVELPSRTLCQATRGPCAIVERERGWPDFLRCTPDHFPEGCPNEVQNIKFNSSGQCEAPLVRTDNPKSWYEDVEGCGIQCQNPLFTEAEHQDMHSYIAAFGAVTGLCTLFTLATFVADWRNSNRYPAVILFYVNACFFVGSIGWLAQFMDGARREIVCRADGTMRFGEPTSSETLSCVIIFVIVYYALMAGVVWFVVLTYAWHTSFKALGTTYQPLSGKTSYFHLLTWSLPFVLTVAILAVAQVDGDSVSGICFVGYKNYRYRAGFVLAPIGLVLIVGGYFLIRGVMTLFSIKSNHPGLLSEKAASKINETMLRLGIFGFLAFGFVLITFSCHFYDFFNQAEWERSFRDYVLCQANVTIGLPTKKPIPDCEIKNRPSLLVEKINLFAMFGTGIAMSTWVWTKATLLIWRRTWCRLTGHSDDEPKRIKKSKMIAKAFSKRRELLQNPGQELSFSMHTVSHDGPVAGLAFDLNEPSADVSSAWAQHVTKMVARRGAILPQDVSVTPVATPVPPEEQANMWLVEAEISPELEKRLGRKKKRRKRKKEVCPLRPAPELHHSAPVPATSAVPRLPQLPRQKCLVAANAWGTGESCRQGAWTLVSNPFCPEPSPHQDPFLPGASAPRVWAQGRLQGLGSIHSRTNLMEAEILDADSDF
measured.quantity: log10 of IC50 (log10 of the value in nM)
The figures below represent log10 of IC50, where IC50 is stated in nM.

Some compounds with recorded log10 of IC50:
Ask: Name the recorded log10 of IC50 for O=C(Nc1ccc(-c2nc(-c3ccc(C(F)(F)F)s3)n[nH]2)cc1)c1cccc(CN2CCS(=O)(=O)CC2)c1 .
Reply: 2.00

Ask: For O=C(Nc1ccc(-c2nc(C3CC3)n[nH]2)cc1)c1cccc(CN2CCSCC2)c1 then?
Reply: 1.30

Ask: Now this one: Cc1oc(-c2ccc(NC(=O)c3cccc(CN4CCS(=O)(=O)CC4)c3)cc2)nc1C1CC1
Reply: -0.20

Ask: // next record O=C(Nc1ccc(-c2nc(C3CCCN(Cc4ccccc4)C3)n[nH]2)cc1)c1cccc(CN2CCS(=O)(=O)CC2)c1 (centres unmarked)
Reply: 1.50

Ask: Same read-out for O=C(Nc1ccc(-c2nc(-c3ccc(COc4ccccc4F)cc3)n[nH]2)cc1)c1cccc(CN2CCS(=O)(=O)CC2)c1 ?
Reply: 1.60

Continuing:
Ask: Can you look up the measured log10 of IC50 of O=C(Nc1ccc(-c2noc(Cc3ccccc3)n2)cc1)c1cccc(CN2CCS(=O)(=O)CC2)c1 for me?
Reply: 0.80

###

Recorded Mouse WT % Inh by entry
molecular target: mouse SMO^WT (Mus musculus); construct: expressed in transfected cells; assay: Mouse assay: Gli1 qPCR in MEF cells stably expressing mouse SMO WT; assay type: cell-based; settings: mSHh-treated, 24 hours, percentage Gli1 inhibition
Give the number; % is assumed, so skip it.

Ask: Would you mind telling me what Mouse WT % Inh value was observed for Cc1c(-c2ccc(NC(=O)c3ccc(Cl)c(CN4CCS(=O)(=O)CC4)c3)cc2)n[nH]c1C1CC1 [Example 4-22] ?
Reply: 97.0

Ask: Item: O=C(Nc1ccc(-c2nc(C3CC3)n[nH]2)cc1)c1cc(Cl)cc(CN2CCS(=O)(=O)CC2)c1 [Example 2-4]
Reply: 95.4

Ask: For O=C(Nc1ccc(-c2nc(C3CCCCC3)n[nH]2)cc1)c1cccc(CN2CCS(=O)(=O)CC2)c1 [Example 3-6] then?
Reply: 98.4

Ask: Thanks! And Cc1ccc(Cc2n[nH]c(-c3ccc(NC(=O)c4cccc(CN5CCS(=O)(=O)CC5)c4)cc3)n2)cc1 [Example 3-18] ?
Reply: 98.5

###

target: mouse SMO^WT (Mus musculus); construct: expressed in transfected cells; assay: Mouse assay: Gli1 qPCR in MEF cells stably expressing mouse SMO WT; type: cell-based; details: mSHh-treated, 24 hours, percentage Gli1 inhibition
measured.quantity: Mouse WT % Inh (%)
The answer is to be given in %; state only the numeric part.

Ask: Returns the measured Mouse WT % Inh for the input compound. Input: Cc1oc(-c2ccc(NC(=O)c3ccc(Cl)c(CN4CCS(=O)(=O)CC4)c3)cn2)nc1Br
Reply: 99.3

Ask: Entry to check: Cl.O=C(Nc1ccc(-c2nnc(C3CC3)o2)cc1)c1cccc(CN2CCS(=O)(=O)CC2)c1
Reply: 98.9

Ask: What do you have for Cc1oc(-c2ccc(NC(=O)c3ccc(F)c(CN4CCS(=O)(=O)CC4)c3)cc2)nc1C1CC1 ?
Reply: 97.1

Ask: What would you report for O=C(Nc1ccc(-c2nc(Cc3cc(Cl)ccc3Cl)n[nH]2)cc1)c1cccc(CN2CCS(=O)(=O)CC2)c1 ?
Reply: 98.3

Ask: Proceed to CC1CN(Cc2cccc(C(=O)Nc3ccc(-c4nc(C5CC5)n[nH]4)cc3)c2)CCS1(=O)=O (stereo not shown)
Reply: 97.3

Attention now shifts to the item below.
Ask: I'd like to know its Mouse WT % Inh. The compound in question is COc1ccc(Cc2n[nH]c(-c3ccc(NC(=O)c4cccc(CN5CCS(=O)(=O)CC5)c4)cc3)n2)cn1
Reply: 99.0

###

target: human SMO W535L (Homo sapiens, UniProt Q99835, W535L); construct: expressed in transfected cells; host or cells: SMO knock-out mouse embryonic fibroblasts (MEF SMO-/-), BacMam transduction; test: Human assay: Gli1 qPCR in MEF SMO-/- cells BacMam-transduced with hSMO W535L variant; assay type: cell-based; settings: mSHh-treated, 24 hours, Gli1 inhibition by qPCR, read-out: Human W535L pIC50 (converted)
Sequence (Q99835 28-787 W535L): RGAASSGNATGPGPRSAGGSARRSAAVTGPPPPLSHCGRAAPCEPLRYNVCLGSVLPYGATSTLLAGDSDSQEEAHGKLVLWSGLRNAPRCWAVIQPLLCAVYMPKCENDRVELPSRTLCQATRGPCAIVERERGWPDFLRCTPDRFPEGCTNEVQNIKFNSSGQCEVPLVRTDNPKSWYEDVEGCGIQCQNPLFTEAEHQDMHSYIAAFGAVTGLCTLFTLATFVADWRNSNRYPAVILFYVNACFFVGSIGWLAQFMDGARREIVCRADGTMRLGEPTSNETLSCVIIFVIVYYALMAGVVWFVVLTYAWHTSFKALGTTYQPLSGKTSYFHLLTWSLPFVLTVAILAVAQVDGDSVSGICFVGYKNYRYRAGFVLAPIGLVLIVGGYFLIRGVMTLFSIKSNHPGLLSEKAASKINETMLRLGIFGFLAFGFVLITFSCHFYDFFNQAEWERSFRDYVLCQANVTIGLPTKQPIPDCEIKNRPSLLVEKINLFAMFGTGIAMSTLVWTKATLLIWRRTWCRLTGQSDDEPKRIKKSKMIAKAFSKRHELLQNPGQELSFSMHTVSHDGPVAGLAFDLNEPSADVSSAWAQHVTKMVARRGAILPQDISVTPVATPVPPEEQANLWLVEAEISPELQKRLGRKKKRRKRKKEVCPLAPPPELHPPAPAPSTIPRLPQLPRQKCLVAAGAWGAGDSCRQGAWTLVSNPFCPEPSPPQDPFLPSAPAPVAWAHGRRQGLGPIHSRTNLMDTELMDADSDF
Please note: IC50 exactly at 10 nM is Not fulfilled. Only values below 10 nM get Fulfilled.

Some solved entries appear below for comparison.
Ask: Hello, I'm reviewing records and need to know if IC50 of O=C(Nc1ccc(-c2nc(C3CC3)n[nH]2)cc1)c1cc(F)cc(CN2CCS(=O)(=O)CC2)c1 [Example 2-2] is below 10 nM. Could you check?
Reply: Fulfilled

Ask: Follow-up entry: O=C(Nc1ccc(-c2nc(C3CCCC3)n[nH]2)cc1)c1cccc(CN2CCS(=O)(=O)CC2)c1 [Example 3-5]
Reply: Fulfilled

Ask: Then what about the compound Cc1c(-c2ccc(NC(=O)c3ccc(Cl)c(CN4CCS(=O)(=O)CC4)c3)cc2)nn(C)c1C1CC1 [Example 4-26] ?
Reply: Fulfilled

Ask: Entry to check: Cc1oc(-c2ccc(NC(=O)c3cccc(CN4CCS(=O)(=O)CC4)c3)cc2)nc1C1CC1 [Example 4-2]
Reply: Not fulfilled

---
Ask: Is IC50 strictly under 10 nM for the entry Cn1nc(-c2ccc(NC(=O)c3cccc(CN4CCS(=O)(=O)CC4)c3)cn2)cc1C1CC1 [Example 5-4] ?
Reply: Not fulfilled

###

Here, each record is paired with measured Mouse D473H % Inh data.
biological target: mouse SMO^D473H (Mus musculus, UniProt P56726, D477H); construct: expressed in transfected cells; test: Mouse assay: Gli1 qPCR in MEF cells stably expressing mouse SMO D473H; format: cell-based; details: mSHh-treated, 24 hours, percentage Gli1 inhibition
Sequence (P56726 33-793 D477H): as the sequence (P56726 33-793) above, with D445H counted along it
The reply must contain the numeric value and, after it, the unit.

Completed entries (count: 5):
Ask: Short answer please: Mouse D473H % Inh, mouse SMO^D473H (Mus musculus, UniProt P56726, D477H), entry Cc1c(-c2ccc(NC(=O)c3ccc(Cl)c(CN4CCS(=O)(=O)CC4)c3)cc2)n[nH]c1C1CC1
Reply: 97.6%

Ask: Subsequent entry: O=C(Nc1ccc(-c2nc(-c3cccc(Cl)c3)n[nH]2)cc1)c1cccc(CN2CCS(=O)(=O)CC2)c1
Reply: 98.5%

Ask: Can you handle O=C(Nc1ccc(-c2nc(Cc3ccccc3F)n[nH]2)cc1)c1cccc(CN2CCS(=O)(=O)CC2)c1 next?
Reply: 96.9%

Ask: What about this molecule? O=C(Nc1ccc(-c2nc(Cc3ccc(F)cc3)n[nH]2)cc1)c1cccc(CN2CCS(=O)(=O)CC2)c1
Reply: 82.3%

Ask: What do you have for Cl.O=C(Nc1ccc(-c2nc(C3CC3)no2)cc1)c1cccc(CN2CCS(=O)(=O)CC2)c1 ?
Reply: 99.5%

More entries:
Ask: Quick check: Mouse D473H % Inh on mouse SMO^D473H (Mus musculus, UniProt P56726, D477H), item O=C(Nc1ccc(-c2nc(C3CC3)n[nH]2)cc1)c1cc(F)cc(CN2CCS(=O)(=O)CC2)c1 ?
Reply: 91.3%

Ask: Similarly, O=C(Nc1ccc(-c2cc(C3CC3)n[nH]2)cc1)c1cccc(CN2CCS(=O)(=O)CC2)c1 ?
Reply: 97.7%

Ask: // query: Cc1cc(Cc2n[nH]c(-c3ccc(NC(=O)c4cccc(CN5CCS(=O)(=O)CC5)c4)cc3)n2)ccc1Br
Reply: 97.0%

###

molecular target: mouse SMO^W535L (Mus musculus, UniProt P56726, W539L); construct: expressed in transfected cells; test: Mouse assay: Gli1 qPCR in MEF cells stably expressing mouse SMO W535L; assay type: cell-based; conditions: mSHh-treated, 24 hours, percentage Gli1 inhibition
Sequence (P56726 33-793 W539L): as the sequence (P56726 33-793) above, with W507L counted along it
measured.quantity: Mouse W535L % Inh (%)
Express it in %; write the number only.

Use the examples below as a reference point.
Ask: Please give the measured Mouse W535L % Inh for this compound: O=C(Nc1ccc(-c2cc(C3CC3)n[nH]2)cc1)c1ccc(Cl)c(CN2CCS(=O)(=O)CC2)c1
Reply: 51.6

Ask: And then Cc1oc(-c2ccc(NC(=O)c3ccc(Cl)c(CN4CCS(=O)(=O)CC4)c3)cc2)nc1C1CC1 , what is it?
Reply: 79.0

Ask: What do you get for CC(C)(C)c1n[nH]c(-c2ccc(NC(=O)c3cccc(CN4CCS(=O)(=O)CC4)c3)cc2)n1 ?
Reply: 41.6

Here is another compound to look at.
Ask: Would you kindly share the measured Mouse W535L % Inh for COc1cccc(Cc2n[nH]c(-c3ccc(NC(=O)c4cccc(CN5CCS(=O)(=O)CC5)c4)cc3)n2)c1 ?
Reply: 60.1
